Entry source: ChEMBL document CHEMBL2331416

# method: Binding affinity to 2-AP labeled 16s rRNA (unknown origin) having pairing of G1405-C1496 by fluorescence assay
# condition-parameters: read-out: Kd
value-kind: Kd (µM)
// units = µM; emit number, no label

// solved cases for Kd follow
smiles-code	measured
NC[C@H]1O[C@H](O[C@H]2[C@H](O[C@@H]3O[C@H](CO)[C@@H](O)[C@H](O)[C@H]3O)[C@@H](O)[C@H](N)C[C@@H]2N)[C@H](N)[C@@H](O)[C@@H]1O	9.67
NC[C@@H]1O[C@H](O[C@H]2[C@@H](O)[C@H](O[C@@H]3[C@@H](O)[C@H](N)C[C@H](N)[C@H]3O[C@H]3O[C@H](CN)[C@@H](O)[C@H](O)[C@H]3N)O[C@@H]2CO)[C@H](N)[C@@H](O)[C@@H]1O	1.15
C[C@H]1O[C@@H](O[C@@H]2[C@@H](O)[C@H](NC(=O)[C@@H](O)CCN)C[C@H](N)[C@H]2O[C@H]2O[C@H](CN)CC[C@H]2N)[C@H](O)[C@@H](O)[C@@H]1N	0.65
C[C@H]1O[C@@H](O[C@@H]2[C@@H](O)[C@H](N)C[C@H](N)[C@H]2O[C@H]2O[C@H](CN)CC[C@H]2N)[C@H](O)[C@@H](O)[C@@H]1O	1.33
NC[C@H]1O[C@H](O[C@H]2[C@H](O[C@@H]3O[C@H](CO)[C@@H](N)[C@H](O)[C@H]3O)[C@@H](O)[C@H](N)C[C@@H]2N)[C@H](N)[C@@H](O)[C@@H]1O	5.67

// switching to the query compound
Req: Can you look up the measured Kd of NC[C@H]1O[C@@H](O[C@@H]2[C@@H](O)[C@H](N)C[C@H](N)[C@H]2O[C@H]2O[C@H](CN)[C@@H](O)[C@H](O)[C@H]2N)[C@H](O)[C@@H](O)[C@@H]1O for me?
Resp: 26.1

###

# method: Binding affinity to 2-AP labeled 16s rRNA (unknown origin) having pairing of C1405-G1496 by fluorescence assay
Label key: satisfied means Kd under 0.8 µM; not satisfied means Kd of 0.8 µM or more.

compound	label-class
C[C@H]1O[C@@H](O[C@@H]2[C@@H](O)[C@H](N)C[C@H](N)[C@H]2O[C@H]2O[C@H](CN)CC[C@H]2N)[C@H](O)[C@@H](O)[C@@H]1O	not satisfied
NC[C@H]1O[C@H](O[C@H]2[C@H](O[C@@H]3O[C@H](CO)[C@@H](N)[C@H](O)[C@H]3O)[C@@H](O)[C@H](N)C[C@@H]2N)[C@H](N)[C@@H](O)[C@@H]1O	not satisfied
NC[C@H]1O[C@@H](O[C@@H]2[C@@H](O)[C@H](N)C[C@H](N)[C@H]2O[C@H]2O[C@H](CN)[C@@H](O)[C@H](O)[C@H]2N)[C@H](O)[C@@H](O)[C@@H]1N	satisfied
C[C@H]1O[C@@H](O[C@@H]2[C@@H](O)[C@H](N)C[C@H](N)[C@H]2O[C@H]2O[C@H](CN)[C@@H](O)[C@H](O)[C@H]2N)[C@H](O)[C@@H](O)[C@@H]1N	satisfied
NC[C@H]1O[C@H](O[C@H]2[C@H](O[C@@H]3O[C@H](CO)[C@@H](O)[C@H](N)[C@H]3O)[C@@H](O)[C@H](N)C[C@@H]2N)[C@H](N)[C@@H](O)[C@@H]1O	not satisfied
NCC[C@H](O)C(=O)N[C@@H]1C[C@H](N)[C@@H](O[C@H]2O[C@H](CN)[C@@H](O)[C@H](O)[C@H]2N)[C@H](O[C@@H]2O[C@H](CO)[C@@H](O[C@@H]3O[C@H](CN)[C@H](O)[C@@H](O)[C@@H]3N)[C@H]2O)[C@H]1O [NEOKACIN]	not satisfied

Req: Quick check: does NC[C@H]1O[C@@H](O[C@@H]2[C@@H](O)[C@H](N)C[C@H](N)[C@H]2O[C@H]2O[C@H](CN)[C@@H](O)[C@H](O)[C@H]2N)[C@H](O)[C@@H](O)[C@@H]1O have Kd under 0.8 µM?
Resp: not satisfied

Req: Record: C[C@H]1O[C@@H](O[C@@H]2[C@@H](O)[C@H](NC(=O)[C@@H](O)CCN)C[C@H](N)[C@H]2O[C@H]2O[C@H](CN)CC[C@H]2N)[C@H](O)[C@@H](O)[C@@H]1N [PYRANKACIN]
Resp: not satisfied
